All figures here come from paper PMC5716981.

# Ki per entry for A2AARs (Rattus norvegicus)
property: Ki (nM)

1. Nc1nc2ccc(Cl)cc2c2nc(-c3ccco3)nn12 : 2.15
2. Nc1nc2c(cnn2CCc2ccccc2)c2nc(-c3ccco3)nn12 : 3.26

---

molecular target: A2AARs (Homo sapiens); experiment: [3H]ZM241385 competition binding in A549 lung carcinoma membranes
Sequence (P29274 whole entry): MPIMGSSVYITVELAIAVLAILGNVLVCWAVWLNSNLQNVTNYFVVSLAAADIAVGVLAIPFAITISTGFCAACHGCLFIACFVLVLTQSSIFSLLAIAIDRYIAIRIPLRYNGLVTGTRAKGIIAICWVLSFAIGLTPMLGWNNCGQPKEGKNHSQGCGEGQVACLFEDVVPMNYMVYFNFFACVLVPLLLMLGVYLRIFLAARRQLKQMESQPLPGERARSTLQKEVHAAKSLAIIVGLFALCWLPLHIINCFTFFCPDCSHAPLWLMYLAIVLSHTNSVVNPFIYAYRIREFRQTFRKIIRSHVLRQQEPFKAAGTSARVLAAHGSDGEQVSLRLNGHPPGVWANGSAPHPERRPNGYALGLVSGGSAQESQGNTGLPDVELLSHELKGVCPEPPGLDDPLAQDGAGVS
property: Ki (pM)

1) COc1ccccc1CNc1nc(N)c2nc(-c3ccco3)sc2n1 : 5.3

---

tested on: MRMT-1 cells; assay: DELFIA cell proliferation (BrdU) in MRMT-1 cells; assay type: cell-based, rat; settings: 10 μM inhibitor 30 min pretreatment, 100 nM CGS21680, 48 h
property: inhibition of CGS21680-induced cell proliferation by signalling inhibitor

1. CCCCCCCCCCCCCCCCCCOC[C@H](COP(=O)(O)O[C@H]1[C@H](O)[C@@H](O)[C@H](O)C[C@H]1OC)OC : strongly reduced
2. N#CC(=C(/N)Sc1ccccc1N)/C(C#N)=C(/N)Sc1ccccc1N : strongly reduced
